- measurement_description: Cytotoxicity against HFF assessed as inhibition of cell viability after 3 days by MTT assay
- Type: cell-based
- condition_summary: human, HFF cells

{"chemical_structure": "C[C@H]1O[C@H](O[C@H]2CC[C@@]3(C)[C@H](CC[C@@H]4[C@@H]3CC[C@]3(C)[C@@H](C5=CC(=O)OC5)CC[C@]43O)C2)[C@@H](O)[C@@H](O)[C@@H]1O", "CC50 at 72 h, nM": 2300}
{"chemical_structure": "C[C@@H]1O[C@@H](O[C@@H]2[C@@H](O)[C@@H](O)[C@H](O[C@H]3CC[C@@]4(C)[C@H](CC[C@@H]5[C@@H]4CC[C@]4(C)[C@@H](C6=CC(=O)OC6)CC[C@]54O)C3)O[C@H]2C)[C@H](O)[C@H](O)[C@H]1O", "CC50 at 72 h, nM": 1500}

----------
# maps each entry to its Ratio CC50/EC50
- measurement_description: Selectivity index, ratio of CC50 for HFF to EC50 for Human cytomegalovirus Towne infected in human foreskin fibroblasts

{"chemical_structure": "C[C@@H]1O[C@@H](O[C@H]2CC[C@@]3(C)[C@H](CC[C@@H]4[C@@H]3CC[C@]3(C)[C@@H](C5=CC(=O)OC5)CC[C@]43O)C2)CC[C@H]1O", "Ratio CC50/EC50": 174}
{"chemical_structure": "C[C@H]1O[C@H](O[C@H]2CC[C@@]3(C)[C@H](CC[C@@H]4[C@@H]3CC[C@]3(C)[C@@H](C5=CC(=O)OC5)CC[C@]43O)C2)[C@@H](O)[C@@H](O)[C@@H]1O", "Ratio CC50/EC50": 86}
{"chemical_structure": "C[C@H]1O[C@H](O[C@H]2CC[C@@]3(C)[C@H](CC[C@@H]4[C@@H]3CC[C@]3(C)[C@@H](C5=CC(=O)OC5)CC[C@]43O)C2)CC[C@@H]1O", "Ratio CC50/EC50": 29}
{"chemical_structure": "C[C@@H]1O[C@@H](O[C@@H]2CC[C@H](O[C@@H]3CC[C@H](O[C@H]4CC[C@@]5(C)[C@H](CC[C@@H]6[C@@H]5CC[C@]5(C)[C@@H](C7=CC(=O)OC7)CC[C@]65O)C4)O[C@H]3C)O[C@H]2C)CC[C@H]1O", "Ratio CC50/EC50": 21}
{"chemical_structure": "C[C@H]1O[C@H](O[C@H]2[C@H](O)[C@H](O)[C@@H](O[C@H]3[C@H](O)[C@H](O)[C@@H](O[C@H]4CC[C@@]5(C)[C@H](CC[C@@H]6[C@@H]5CC[C@]5(C)[C@@H](C7=CC(=O)OC7)CC[C@]65O)C4)O[C@@H]3C)O[C@@H]2C)[C@@H](O)[C@@H](O)[C@@H]1O", "Ratio CC50/EC50": 31}
{"chemical_structure": "C[C@@H]1O[C@@H](O[C@H]2CC[C@@]3(C)[C@H](CC[C@@H]4[C@@H]3CC[C@]3(C)[C@@H](C5=CC(=O)OC5)CC[C@]43O)C2)[C@H](O)[C@H](O)[C@H]1O", "Ratio CC50/EC50": 139}
{"chemical_structure": "C[C@@H]1O[C@@H](O[C@@H]2[C@@H](O)[C@@H](O)[C@H](O[C@@H]3[C@@H](O)[C@@H](O)[C@H](O[C@H]4CC[C@@]5(C)[C@H](CC[C@@H]6[C@@H]5CC[C@]5(C)[C@@H](C7=CC(=O)OC7)CC[C@]65O)C4)O[C@H]3C)O[C@H]2C)[C@H](O)[C@H](O)[C@H]1O", "Ratio CC50/EC50": 30}
{"chemical_structure": "C[C@H]1O[C@H](O[C@H]2CC[C@@]3(C)[C@H](CC[C@@H]4[C@@H]3CC[C@]3(C)[C@@H](C5=CC(=O)OC5)CC[C@]43O)C2)CC[C@@H]1O[C@@H]1CC[C@H](O[C@@H]2CC[C@H](O)[C@@H](C)O2)[C@@H](C)O1", "Ratio CC50/EC50": 7}
